Give measured Ka for each item. Keep answers brief.
target: Marasmius oreades lectin (MOA, cMOA) (Marasmius oreades, UniProt Q8X123); test: Isothermal titration calorimetry, MOA of Example 1 (proteolyzed, clipped form, cMOA); format: binding; conditions: isothermal titration calorimetry
Sequence (Q8X123 1-293): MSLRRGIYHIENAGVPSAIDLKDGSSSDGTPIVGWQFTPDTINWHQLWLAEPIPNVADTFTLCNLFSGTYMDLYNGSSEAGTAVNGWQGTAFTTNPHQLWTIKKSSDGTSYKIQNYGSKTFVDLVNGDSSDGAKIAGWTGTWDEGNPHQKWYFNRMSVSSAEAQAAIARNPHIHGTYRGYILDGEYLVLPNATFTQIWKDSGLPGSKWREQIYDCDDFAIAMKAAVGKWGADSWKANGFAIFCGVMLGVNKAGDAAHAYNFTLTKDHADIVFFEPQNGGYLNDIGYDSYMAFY
State the answer as a number, implicitly in M⁻¹.

# input molecule: CC1OC(OC2C(OC3C(CO)OC(O)C(O)C3O)OC(CO)C(O)C2O)C(O)C(O)C1O (centres unmarked) ; wanted: its Ka
548

Request: OC[C@H]1O[C@@H](O[C@H]2[C@H](O)[C@@H](O)C(O)O[C@@H]2CO)[C@H](O)[C@@H](O)[C@H]1O (some centres unmarked)
185

Request: C[C@@H]1O[C@@H](O[C@H]2C(O)O[C@H](CO)[C@H](O)[C@@H]2O[C@H]2O[C@H](CO)[C@H](O)[C@H](O)[C@H]2O)[C@@H](O)[C@H](O)[C@@H]1O (some centres unmarked) [B trisaccharide, Galα1,3[Fucα1,2]Gal]
36000

Request: CC(=O)N[C@H]1C(O)O[C@H](CO)[C@@H](O[C@@H]2O[C@H](CO)[C@H](O)[C@H](O[C@H]3O[C@H](CO)[C@H](O)[C@H](O)[C@H]3O)[C@H]2O)[C@@H]1O (some centres unmarked)
9700

Request: OC[C@H]1O[C@H](O[C@H]2[C@@H](O)[C@@H](CO)OC(O)[C@@H]2O)[C@H](O)[C@@H](O)[C@H]1O (some centres unmarked)
6000
